Target: sphingosine kinase 2 (SK2) (Homo sapiens)
Construct: gene SPHK2; purified recombinant human SK2
Sequence (Q9NRA0 1-654): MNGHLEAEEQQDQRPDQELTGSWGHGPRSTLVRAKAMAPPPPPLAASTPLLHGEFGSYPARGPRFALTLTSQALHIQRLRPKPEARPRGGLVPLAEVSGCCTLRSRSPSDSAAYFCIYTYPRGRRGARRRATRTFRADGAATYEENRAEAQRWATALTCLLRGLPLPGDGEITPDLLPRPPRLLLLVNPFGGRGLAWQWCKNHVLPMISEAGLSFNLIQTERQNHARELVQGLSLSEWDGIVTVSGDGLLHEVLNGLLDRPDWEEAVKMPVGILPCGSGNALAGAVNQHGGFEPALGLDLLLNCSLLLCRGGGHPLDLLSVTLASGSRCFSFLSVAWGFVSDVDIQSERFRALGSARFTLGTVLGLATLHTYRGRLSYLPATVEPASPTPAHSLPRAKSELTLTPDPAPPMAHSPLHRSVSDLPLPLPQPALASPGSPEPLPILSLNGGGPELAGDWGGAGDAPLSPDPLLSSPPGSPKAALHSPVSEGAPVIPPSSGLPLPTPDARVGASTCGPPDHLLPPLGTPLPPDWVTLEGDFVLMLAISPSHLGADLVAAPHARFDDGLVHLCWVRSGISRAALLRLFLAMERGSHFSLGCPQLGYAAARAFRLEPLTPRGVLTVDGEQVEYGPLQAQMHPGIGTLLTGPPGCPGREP
Assay: in vitro radiometric [γ-32P]ATP sphingosine kinase assay with purified enzyme
Format: biochemical
Property Measured: IC50
Give the number first and the unit second.

IC50 for sphingosine kinase 2 (SK2) (Homo sapiens) with input Cc1nn(C)c2nc(NNC(=O)Nc3c(Cl)cncc3Cl)cc(C(C)C)c12 [JTE-013] equals 4.3 µM
